experiment: in vitro; conditions: human, liver microsomes
QUANTITY: microsomal CLint

INSERT INTO results (smiles_representation, quantity, recorded_result) VALUES
  ('COc1ccc(Sc2c(C)n(CC(=O)O)c3ccc(C)cc23)cc1', 'microsomal CLint', '< 3 µL/min/mg'),
  ('Cc1c(CC(=O)O)c2cc(F)ccc2n1Cc1nc2ccccc2s1', 'microsomal CLint', '< 3 µL/min/mg'),
  ('O=C(NCC1(O)CCCCCC1)c1cc(-n2ncc(=O)[nH]c2=O)ccc1Cl', 'microsomal CLint', '< 3 µL/min/mg');

###

experiment: physchem
pKa overview
QUANTITY: pKa

INSERT INTO assay_data (compound, quantity, recorded_result) VALUES
  ('Cc1ccc(S(=O)(=O)NC(=O)N2CCC(N3CCC(Oc4ccc(Cl)c(C)c4Cl)CC3)CC2)cc1', 'pKa', 3.2),
  ('CNCCc1ccc(O)c(O)c1 [DEOXIEPINEPHRINE]', 'pKa', 8.97),
  ('Nc1ccc(S(=O)(=O)Nc2ncccn2)cc1 [SULFADIAZINE]', 'pKa', 6.29),
  ('COc1ccc(S(=O)(=O)NC(=O)N2CCC(N3CCC(Oc4ccc(Cl)c(Cl)c4)CC3)CC2)cc1', 'pKa', 3.6),
  ('O=C(O)COc1ccc(Cl)cc1CN1CCCN(S(=O)(=O)Cc2ccccc2)CC1', 'pKa', 3.4),
  ('O=C(O)Cc1cccc(N2CCC(CN3CCC(Oc4ccc(Cl)c(Cl)c4)CC3)CC2)c1', 'pKa', 4.4);

###

assay: in vitro; conditions: human, plasma, PPB
QUANTITY: fraction unbound at 5 h

INSERT INTO results (compound, quantity, recorded_result) VALUES
  ('CN1CCN(c2cc3c(Nc4ccc(F)cc4F)c(C(N)=O)cnc3cc2F)CC1', 'fraction unbound at 5 h', 0.244),
  ('NC(=O)c1cnc(N[C@H]2CCCNC2)c2cc(Br)sc12', 'fraction unbound at 5 h', 0.179),
  ('COc1ccc2c(Oc3ccc(CC(=O)Nc4cn(C)nc4C)c(OC)c3)ccnc2c1', 'fraction unbound at 5 h', 0.0111),
  ('COc1nccnc1NS(=O)(=O)c1ccc(N)cc1', 'fraction unbound at 5 h', 0.232),
  ('CN[C@@H](C)C(=O)N[C@H](C(=O)N[C@H]1CCCN(C(=O)Cc2ccccc2)C1)C1CCCCC1', 'fraction unbound at 5 h', 0.376),
  ('Cc1cc(-c2ccc(-c3nc4ccncc4c(O)c3C#N)cc2)ccn1', 'fraction unbound at 5 h', 0.0041),
  ('Cc1oc(CN2CCNCC2)cc1C(=O)NCC12CC3CC(CC(C3)C1)C2', 'fraction unbound at 5 h', 0.148),
  ('CN[C@@H](C)C(=O)N[C@H](C(=O)N1CCC[C@H]1C(=O)N[C@@H]1CCCc2ccccc21)C(C)(C)C', 'fraction unbound at 5 h', 0.0801),
  ('Cc1nnc(NS(=O)(=O)c2ccc(N)cc2)s1', 'fraction unbound at 5 h', 0.0647),
  ('CNCc1ccc(-c2[nH]c3cc(F)cc4c3c2CCNC4=O)cc1', 'fraction unbound at 5 h', 0.232),
  ('CNCCC=C1c2ccccc2CCc2ccccc21', 'fraction unbound at 5 h', 0.132),
  ('O=C(NC12CC3CC(CC(C3)C1)C2)OCCNC1CCCCC1', 'fraction unbound at 5 h', 0.11),
  ('Cc1ccc2c(c1)c(-c1ccnc3c(S(C)(=O)=O)cccc13)c(C)n2CC(=O)O', 'fraction unbound at 5 h', 0.0606),
  ('CCOC(=O)Nc1cc2c(c(N)n1)N=C(c1ccccc1)CCN2', 'fraction unbound at 5 h', 0.0544),
  ('CC[C@H](c1ccc(C(=O)O)c(Oc2cccc(Cl)c2)c1)N1CCC[C@H](n2cc(C)c(=O)[nH]c2=O)C1', 'fraction unbound at 5 h', 0.0179),
  ('O=C(O)COc1ccc(Cl)cc1CN1CCCN(S(=O)(=O)Cc2ccccc2)CC1', 'fraction unbound at 5 h', 0.157),
  ('O=C(c1cccc(Cc2n[nH]c(=O)c3ccccc23)c1)N1CCOCC1', 'fraction unbound at 5 h', 0.415),
  ('O=C(NCC1(O)CCCCCC1)c1cc(-c2ccccc2C(=O)O)ccc1Cl', 'fraction unbound at 5 h', 0.089),
  ('O=C(NCC12CC3CC(CC(C3)C1)C2)c1cc(CN2CC3CNCC(C2)O3)ccc1Cl', 'fraction unbound at 5 h', 0.0467),
  ('CNc1ccc(-c2nc3ccc(O)cc3s2)cc1 [PITTSBURGH COMPOUND B UNLABELLED]', 'fraction unbound at 5 h', 0.0111),
  ('Cc1c(F)cc(C(=O)NC2CC2)cc1-c1ccc(C(=O)NCC(C)(C)C)cn1', 'fraction unbound at 5 h', 0.119),
  ('CC(C)Oc1cc(-n2cnc3ccc(N[C@@H](C)c4ccc(F)cn4)nc32)n[nH]1', 'fraction unbound at 5 h', 0.0581),
  ('CNc1c(C(N)=O)cnc2[nH]c(-c3ccc(OCCN4CCOCC4)cc3)nc12', 'fraction unbound at 5 h', 0.212),
  ('CC(C)C(NC(=O)c1cc(Cl)ccc1C(F)(F)F)C(=O)c1ccc(C#N)cc1 (stereo not drawn)', 'fraction unbound at 5 h', 0.0262),
  ('COCCNC(=O)c1ccc(Nc2ncc3cc(-c4ccncc4C)ccc3n2)cc1', 'fraction unbound at 5 h', 0.0139),
  ('O=C(Nc1ccccc1-c1cn2c(CN3CCNCC3)csc2n1)c1cnc2ccccc2n1', 'fraction unbound at 5 h', 0.0099),
  ('COCCC(C)n1nc(C)c(C(=O)N[C@@H](C)C(C)(C)C)c1NS(=O)(=O)c1ccc(C)cc1 (stereo partly drawn)', 'fraction unbound at 5 h', 0.101),
  ('CC1(C)S[C@@H]2[C@H](NC(=O)C(C(=O)O)c3ccccc3)C(=O)N2[C@H]1C(=O)O (stereo partly drawn)', 'fraction unbound at 5 h', 0.546);

###

assay: in vitro; conditions: human, liver microsomes
QUANTITY: microsomal CLint

INSERT INTO results (smiles_representation, quantity, recorded_result) VALUES
  ('CCC(CC)NC(=O)c1cnn(-c2ccccn2)c1NS(=O)(=O)c1ccc(C)cc1', 'microsomal CLint', '< 3 µL/min/mg'),
  ('O=C(O)Cc1ccccc1N1CCC(CN2CCC(Oc3ccc(Cl)c(Cl)c3)CC2)CC1', 'microsomal CLint', '< 3 µL/min/mg'),
  ('Cc1nn(-c2ccc(F)cc2)c(NS(=O)(=O)c2cccnc2)c1C(=O)N[C@@H](C)C(C)(C)C', 'microsomal CLint', '< 3 µL/min/mg');

###

Quick reference for logD among some molecules
assay: physchem; details: octan-1-ol/water, pH 7.4
QUANTITY: logD

INSERT INTO assay_data (molecule, recorded_result) VALUES
  ('Cc1ccccc1CN1CCC(N2CCC(n3c(=O)[nH]c4ccccc43)CC2)CC1', 2.68),
  ('CCC1(c2ccc(N)cc2)CCC(=O)NC1=O (centres undefined) [AMINOGLUTETHIMIDE]', 0.6),
  ('Cc1nc(-c2ccc(CN3CCC(n4c(=O)[nH]c5ccccc54)CC3)cc2)c(-c2ccccc2)[nH]c1=O', 3.8),
  ('O=C(NCc1ccncc1)c1ccc(Oc2ccc(C#C[C@]3(O)CN4CCC3CC4)cc2)cc1', 2.42),
  ('CCN(CC)CCN1C(=O)[C@@](O)(c2ccccc2Cl)c2c1cc(C(N)=O)cc2C(F)(F)F', 2.4),
  ('Cc1ccc(CN2C(=O)CCSc3ccc(Cl)cc32)cc1', 3.7),
  ('OCCN1CCN(CCCN2c3ccccc3Sc3ccc(C(F)(F)F)cc32)CC1 [FLUPHENAZINE]', 3.8),
  ('CCOc1ccc(-n2c(CC)nc3ccccc3c2=O)cc1', 3.27),
  ('C[C@@H]1CN(Cc2ccc(F)cc2)[C@@H](C)CN1C(=O)c1cc2c(C(=O)C(=O)N(C)C)cn(C)c2cc1Cl [TALMAPIMOD]', 3.6),
  ('O=C1COc2ccc(CNC3CCN(CCN4C(=O)COc5ccc(F)cc54)CC3)nc2N1', 0.9),
  ('Oc1ccc2c3c1O[C@H]1c4[nH]c5ccccc5c4C[C@@]4(O)[C@@H](C2)N(CC2CC2)CC[C@]314 [NALTRINDOLE]', 2.7),
  ('CN1CCN(C(=O)OC2c3nccnc3C(=O)N2c2ccc(Cl)cn2)CC1 (centres undefined) [ZOPICLONE]', 1.1),
  ('CC(=O)N(C)c1ccccc1', 1.1),
  ('O=C(Cc1cccc2ccccc12)Nc1ccccc1', 3.9),
  ('N#Cc1c(-c2ccccc2)nc(SCCc2ccccc2)[nH]c1=O', 1.71),
  ('Cc1cc(C)n(-c2cccc(Cl)c2C#N)n1', 3),
  ('CC(C)Nc1nc(NCc2ccccc2)c2sccc2n1', 3.9),
  ('Cc1cc(=O)oc2cc3c(cc12)CCCN3', 2.7),
  ('Cc1cccc([C@H](C)c2cnc[nH]2)c1C [DEXMEDETOMIDINE]', 2.79);
